Some molecules, each annotated with its measured LD50.
- Test system: 6-OHDA treated zebrafish larvae
- procedure summary: LD50 / lethality in the disease context of the zebrafish model
- stated conditions: 6-OHDA disease-induced zebrafish larvae
Counter-ions that a name gives are not always drawn.

{"columns": ["molecule", "measured on", "LD50"],
 "data": [
  ["CC[C@@H](c1cccc(O)c1)[C@@H](C)CN(C)C [tapentadol, tapentadol hydrochloride]", "6-OHDA treated zebrafish larvae", "8079 | M"],
  ["N[C@@H](Cc1ccc(O)c(O)c1)C(=O)O [L-Dopa, Levodopa]", "6-OHDA treated zebrafish larvae", ">5 mM"],
  ["C#CCN[C@@H]1CCc2ccccc21 [Rasagiline]", "6-OHDA treated zebrafish larvae", "187.5 | M"]
]}

Consider now this further molecule.
Request: Field request: LD50 | item: Cc1cn([C@H]2C=C[C@@H](CO)O2)c(=O)[nH]c1=O [stavudine]
Result: >10 mM
